Biological target: recombinant EphB4 (Homo sapiens, UniProt P54760)
Experiment: biochemical
Conditions: IC50 in assay A; method of compound preparation not stated
RESULT_TYPE: pIC50
Recall that pIC50 is obtained by taking minus log10 of the concentration measured in molar.

query: # return pIC50 of CN(c1cc(Cl)ccn1)c1ccnc(Nc2cc(N3CCOCC3)cc(N3CCOCC3)c2)n1 (system: recombinant EphB4 (Homo sapiens, UniProt P54760))
result: 6.39

* * *

Would you mind telling me the reported pIC50 of each entry?
Target: recombinant EphB4 (Homo sapiens)
Sequence (P54760 563-987): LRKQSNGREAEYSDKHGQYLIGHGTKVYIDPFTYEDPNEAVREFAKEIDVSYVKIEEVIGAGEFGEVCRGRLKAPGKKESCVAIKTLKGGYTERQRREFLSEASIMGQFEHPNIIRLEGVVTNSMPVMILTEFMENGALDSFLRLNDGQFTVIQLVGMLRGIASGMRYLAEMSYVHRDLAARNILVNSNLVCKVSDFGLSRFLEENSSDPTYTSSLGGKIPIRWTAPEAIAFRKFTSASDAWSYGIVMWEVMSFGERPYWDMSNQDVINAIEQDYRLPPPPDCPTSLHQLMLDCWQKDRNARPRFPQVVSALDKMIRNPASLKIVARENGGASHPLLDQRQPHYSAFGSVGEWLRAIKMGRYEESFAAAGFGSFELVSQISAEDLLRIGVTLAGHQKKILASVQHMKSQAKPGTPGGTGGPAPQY
Assay: biochemical
Details: EphB4 enzyme assay Mean IC50 value, Method of compound preparation: Echo (acoustic dispensing); * = tested once only
// returns pIC50 (minus log10 of molar concentration), number only

query: Report measured pIC50; entry is Cc1cccc(N(C)c2ccnc(Nc3cc(N4CCOCC4)cc(N4CCOCC4)c3)n2)n1
result: 6.68

query: Specify reported pIC50 for the molecule shown: Cc1ncc(CO)cc1N(C)c1ccnc(Nc2cc(N3CCOCC3)cc(N3CCOCC3)c2)n1
result: 7.17

query: Give reported pIC50 value for COc1cnc(Cl)c(N(C)c2ccnc(Nc3cc(N4CCOCC4)cc(N4CCOCC4)c3)n2)c1
result: 7.97

query: Provide measured pIC50 value, entry: Cc1ccc(N(C)c2ccnc(Nc3cc(N4CCOCC4)cc(N4CCOCC4)c3)n2)nc1
result: 6.80

query: // Input: COc1cnc(C)c(N(C)c2ccnc(Nc3cc(N4CCOCC4)cc(N4CCOCC4)c3)n2)c1 . Output its pIC50 only.
result: 8.36

query: In one line, give reported pIC50 of the entry CN(c1cncc(Cl)c1)c1ccnc(Nc2cc(N3CCOCC3)cc(N3CCOCC3)c2)n1 .
result: 7.93

query: Respond only with pIC50 recorded for Cc1ccc(CO)nc1N(C)c1ccnc(Nc2cc(N3CCOCC3)cc(N3CCOCC3)c2)n1
result: 6.85

This collection of values is drawn from patent US20090054428A1.
